- target.under.test: T1, human HER-2 extracellular domain (HER-2 ECD) (human, UniProt P04626 23-646)
- T1 construct: range 23-646; also called erbB2; HER2 protein
- experiment: competitive Fab-phage ELISA
What IC50 was measured for each of the following?
Respond numerically; units are nM and should not be typed.

Look up IC50 for this binder: G42 (Fab, V domains shown) VH: EVQLVESGGGLVQPGGSLRLSCAASGFWIWSSSIHWVRQAPGKGLEWVAWISPSSGSTWYADSVKGRFTISADTSKNTAYLQMNSLRAEDTAVYYCARSSWSSWSSALDYWGQGTLVTVSS VL: DIQMTQSPSSLSASVGDRVTITCRASQDVNTAVAWYQQKPGKAPKLLIYSASSLYSGVPSRFSGSRSGTDFTLTISSLQPEDFATYYCQQWSSWPSTFGQGTKVEIK 43

G58 (Fab, V domains shown) VH: EVQLVESGGGLVQPGGSLRLSCAASGFYISYSSIHWVRQAPGKGLEWVASISPYSGYTYYADSVKGRFTISADTSKNTAYLQMNSLRAEDTAVYYCARSSYSYYYYSYALDYWGQGTLVTVSS VL: DIQMTQSPSSLSASVGDRVTITCRASQDVNTAVAWYQQKPGKAPKLLIYSASSLYSGVPSRFSGSRSGTDFTLTISSLQPEDFATYYCQQSSSSPSTFGQGTKVEIK ? 15.1
